- assay text: Half life in dog at 3 mg/kg, iv administered as single dose
- Type: ADME, organism-based, Canis lupus familiaris
- conditions: in vivo

- compound: "O[C@H](C[C@H]1c2c(F)cccc2-c2cncn21)[C@H]1CC[C@H](O)CC1 [NAVOXIMOD]"
  unit: "h"
  half-life: 1.6

---

- assay text: Aqueous solubility of the compound at pH 1
- Assay type: physicochemical
Each entry below carries its reported solubility.
readout: solubility

- molecule: "O=C(N[C@H]1CC[C@@H](C(O)CC2c3ccccc3-c3cncn32)CC1)c1ccccc1 (some centres undefined)"
  readout: "solubility"
  test value: "400 µM"
- molecule: "OC1CCC(C(O)CC2c3c(F)cccc3-c3cncn32)CC1 (centres undefined)"
  readout: "solubility"
  test value: "353 µM"
- molecule: "O=C(N[C@H]1CC[C@H](C(O)CC2c3ccccc3-c3cncn32)CC1)c1ccccc1 (some centres undefined)"
  readout: "solubility"
  test value: "363 µM"
- molecule: "O[C@H](C[C@H]1c2c(F)cccc2-c2cncn21)[C@H]1CC[C@H](O)CC1"
  readout: "solubility"
  test value: "> 200 µM"
